Target: T1, human MSLN-R2-his protein (human, UniProt Q13421 391-486)
T1 construct: also called human MSLN-R2 protein; hMSLN-R2-his; not shown: His tag
T1 sequence (Q13421 other isoform, or with tags, fused parts or gaps): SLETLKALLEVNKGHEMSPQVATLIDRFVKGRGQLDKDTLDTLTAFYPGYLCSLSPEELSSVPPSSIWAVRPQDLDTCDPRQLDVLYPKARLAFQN
Test: ELISA, coated antigen; no antibody (blank, column 'none')

- BINDER: "S009-F4-94.15 (antibody, human IgG1, kappa, V domains shown, Human-murine chimeric antibody, human IgG1/kappa constant regions) VH: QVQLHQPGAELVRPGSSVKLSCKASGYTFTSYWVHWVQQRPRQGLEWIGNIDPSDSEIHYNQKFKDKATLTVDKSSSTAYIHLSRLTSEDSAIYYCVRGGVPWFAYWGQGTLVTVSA VL: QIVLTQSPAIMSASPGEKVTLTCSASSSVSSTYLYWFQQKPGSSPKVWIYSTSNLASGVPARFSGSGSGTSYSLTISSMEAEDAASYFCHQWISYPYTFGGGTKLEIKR"
  OD450: "0.07 OD450"
